- System tested: T1, human CD38 on cells (human, UniProt P28907 1-300)
- T1 construct: The cell that carried CD38 is named under assay in each row; also called CD38 on Raji, RPMI8226, OPM2, CCRF-CEM, human erythrocytes, CD38 CHO-K1 transfectants
- Protocol details: FACS Scatchard, IgG1 on Raji cells
Assay metric: Kd (nM)

>  <Binder>
MOR03087 IgG1 (antibody, V domains shown) VH: QVQLVESGGGLVQPGGSLRLSCAASGFTFSSYYMNWVRQAPGKGLEWVSGISGDPSNTYYADSVKGRFTISRDNSKNTLYLQMNSLRAEDTAVYYCARDLPLVYTGFAYWGQGTLVTVSS VL: DIELTQPPSVSVAPGQTARISCSGDNLRHYYVYWYQQKPGQAPVLVIYGDSKRPSGIPERFSGSNSGNTATLTISGTQAEDEADYYCQTYTGGASLVFGGGTKLTVLG

>  <Assay metric>
Kd

>  <Endpoint unit>
nM

>  <Measurement>
5

$$$$
